From: patent US20090170763A1

- system name: rat GHS-R (GHS receptor) expressed on CHO-GHSR62 cells (rat, UniProt O08725 1-364)
- Sequence (O08725 whole entry): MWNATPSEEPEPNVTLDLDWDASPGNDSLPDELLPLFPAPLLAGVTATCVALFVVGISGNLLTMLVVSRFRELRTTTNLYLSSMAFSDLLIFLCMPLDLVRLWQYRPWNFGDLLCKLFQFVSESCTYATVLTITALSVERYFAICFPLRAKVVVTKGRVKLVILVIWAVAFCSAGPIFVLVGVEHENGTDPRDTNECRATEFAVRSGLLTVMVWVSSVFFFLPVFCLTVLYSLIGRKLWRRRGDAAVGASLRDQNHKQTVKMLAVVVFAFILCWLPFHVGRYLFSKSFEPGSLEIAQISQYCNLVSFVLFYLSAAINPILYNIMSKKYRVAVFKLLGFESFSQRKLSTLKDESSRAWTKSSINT
- assay details: cell-based or functional assay
Ends that are not written are not given here. * marks the point of attachment. Octanoyl = CCCCCCCC(=O)*
measure: Ca-releasing activity EC50 (nM)

GSS(Octanoyl)FLSPEHQKAQQR [rGhrelin (1-15)]; 8.6

1: GSS(Octanoyl)FLSPEHQRVQQR [hGhrelin (1-15)]
2: GSS(Octanoyl)FLSPEHQKAQRKESKKPPAKLQPR [rat ghrelin-27]
Query: Parameter check: reported Ca-releasing activity EC50 is higher for which label, 1 or 2 ? Let me know the label of the one you choose.
Response: 1
(1: 7 nM, 2: 1.5 nM)
